# tgt: Mitogen-activated protein kinase 11 (Homo sapiens, UniProt Q15759)
# Sequence (Q15759 whole entry): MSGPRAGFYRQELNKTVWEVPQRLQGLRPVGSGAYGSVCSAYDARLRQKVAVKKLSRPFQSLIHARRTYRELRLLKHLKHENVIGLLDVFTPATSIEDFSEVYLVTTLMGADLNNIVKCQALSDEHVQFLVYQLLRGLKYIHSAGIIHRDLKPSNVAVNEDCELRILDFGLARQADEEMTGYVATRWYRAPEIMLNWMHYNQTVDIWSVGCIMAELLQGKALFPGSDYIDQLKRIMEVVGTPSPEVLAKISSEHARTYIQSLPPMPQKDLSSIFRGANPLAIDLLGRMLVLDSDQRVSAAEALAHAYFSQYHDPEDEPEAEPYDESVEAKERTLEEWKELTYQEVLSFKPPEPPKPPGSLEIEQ
# test_details: Inhibition of Mitogen-activated protein kinase p38 beta by 1 uM.
measured_metric: inhibition (%)
Reply numerically in %, unit not repeated.

query: GET /values?readout=inhibition&item= "Nc1cccc(Cl)c1N1C(=O)NCc2nc(Sc3ccc(F)cc3)ccc21"
result: 11

query: Query "O=C1NCc2nc(NCc3ccc(Cl)cc3)ccc2N1c1c(Cl)cccc1Cl" next
result: 12

query: Query "COC(=O)c1cccc(Cl)c1N1C(=O)NCc2nc(Sc3ccc(F)cc3)ccc21" next
result: 67

query: Query "O=C(O)c1cccc(Cl)c1N1C(=O)NCc2nc(Sc3ccc(F)cc3)ccc21" next
result: 0

query: Query "O=C1NCc2nc(Sc3ccc(F)cc3)ccc2N1c1c(Cl)cc(C(F)(F)F)cc1Cl" next
result: 56

---
query: GET /values?readout=inhibition&item= "O=C1NCc2nc(Sc3cccc(Cl)c3)ccc2N1c1c(Cl)cccc1Cl"
result: 67

query: Query "O=C1NCc2nc(SCc3ccccc3)ccc2N1c1c(Cl)cccc1Cl" next
result: 13

query: Query "O=C1NCc2nc(SCc3ccc(F)cc3F)ccc2N1c1c(Cl)cccc1Cl" next
result: 6

query: Query "COc1ccc(CSc2ccc3c(n2)CNC(=O)N3c2c(Cl)cccc2Cl)cc1" next
result: 3

query: Query "NC(=O)Oc1cccc(Cl)c1N1C(=O)NCc2nc(Sc3ccc(F)cc3)ccc21" next
result: 10

query: Query "O=C1NCc2nc(Sc3ccccc3F)ccc2N1c1c(Cl)cccc1Cl" next
result: 74
